Molecular target: T1, 10E8-B1 epitope scaffold (synthetic construct (resurfaced …))
T1 chain: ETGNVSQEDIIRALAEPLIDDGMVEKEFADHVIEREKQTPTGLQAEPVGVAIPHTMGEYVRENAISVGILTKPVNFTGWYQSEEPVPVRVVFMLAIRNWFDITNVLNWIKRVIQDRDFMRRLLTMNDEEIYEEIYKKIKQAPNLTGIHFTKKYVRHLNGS
measurement.type: Kd (µM)
Just the number please, in µM, no unit attached.

query: Entry NHP-10E8_MPER-GT10v55_W26-06 (antibody, V domains shown) VH: QVQLQESGPGLVKPSETLSLTCAVSGDSISSGYYYWSWIRQPPGKGLEWIGYITYSGSTSYNPSLKSQVTISRDTAKNQFSLKLSSVTAADTAVYYCARGGTYYNFWSDGSPQYNRFGFWGPGVPVTVSS VL: DIVMTQTPLSLPVTPGEPASISCRSSQSLLHSEDGNTYLDWYLQKPGQSPQLLIYEVSNRASGVPDRFSGSGSDTDFTLKISRVEAEDVGVYYCMQGLEFPLTFGGGTKVELK has what Kd?
result: 6.42
